For each of the compounds below, state its IC50.
# targetOrSystem: IL-23R (Homo sapiens)
# assayInfo: DB cells IL23R pSTAT3 cell assay (pStat3 HTRF)
# Type: cell-based
# statedConditions: Table E3; DB cells, IL-23 0.5 nM, 30 minutes at 37° C.; read-out: pStat3 HTRF (IC50)
Bridge positions count the residues as written; N and C are the ends. Square brackets hold non-standard residues; d marks the D form. Peptide text beside a SMILES is read from it. Trp(7-Me) = Cc1cccc2c(C[C@H](N)C(=O)O)c[nH]c12; 2Nal = N[C@@H](Cc1ccc2ccccc2c1)C(=O)O; AEF = NCCOc1ccc(C[C@H](N)C(=O)O)cc1; Cit = NC(=O)NCCC[C@H](N)C(=O)O; Pen = CC(C)(S)[C@H](N)C(=O)O; αMeK = C[C@](N)(CCCCN)C(=O)O

Ask: Value lookup for IC50; key = CC(=O)NCCCC[C@H](NC(=O)[C@](C)(CCCCN)NC(=O)[C@H](Cc1ccc2ccccc2c1)NC(=O)[C@H](Cc1ccc(OCCN)cc1)NC(=O)[C@H]1NC(=O)[C@H](CCC(N)=O)NC(=O)[C@H](Cc2c[nH]c3cc(Cl)ccc23)NC(=O)[C@H]([C@@H](C)O)NC(=O)[C@H](CC(N)=O)NC(=O)[C@@H](NC(C)=O)C(C)(C)SSC1(C)C)C(=O)N[C@@H](CC(N)=O)C(=O)NCCC(N)=O
Result: 10 to 100 nM

Ask: Value lookup for IC50; key = CC(=O)NCCCC[C@@H]1NC(=O)[C@H](Cc2c[nH]c3c(C)cccc23)NC(=O)[C@H]([C@@H](C)O)NC(=O)[C@H](CC(N)=O)NC(=O)[C@@H](NC(C)=O)C(C)(C)SSC(C)(C)[C@@H](C(=O)N[C@@H](Cc2ccc(OCCN)cc2)C(=O)N[C@@H](Cc2ccc3ccccc3c2)C(=O)N[C@@](C)(CCCCN)C(=O)N[C@@H](CCCCNC(C)=O)C(=O)N[C@@H](CC(N)=O)C(=O)N[C@@H](CCCNC(=N)N)C(N)=O)NC1=O
Result: 1 to 10 nM

Now for another entry.
Ask: Value lookup for IC50; key = CC(=O)NCCCC[C@H](NC(=O)[C@](C)(CCCCN)NC(=O)[C@H](Cc1ccc2ccccc2c1)NC(=O)[C@H](Cc1ccc(OCCN)cc1)NC(=O)[C@H]1NC(=O)[C@H](CCCNC(N)=O)NC(=O)[C@H](Cc2c[nH]c3c(C)cccc23)NC(=O)[C@H]([C@@H](C)O)NC(=O)[C@H](CC(N)=O)NC(=O)[C@@H](NC(C)=O)C(C)(C)SSC1(C)C)C(=O)N[C@@H](CC(N)=O)C(=O)N[C@H](CCCNC(=N)N)C(N)=O [compound 256] (Ac-[Pen]NT[Trp(7-Me)][Cit][Pen][AEF][2Nal][αMeK]K(Ac)N[dR]-NH2; disulfide 1-6)
Result: < 1 nM

---

For each of the compounds below, state its IC50.
# targetOrSystem: IL-23R (Homo sapiens, UniProt Q5VWK5)
# Sequence (Q5VWK5 24-629): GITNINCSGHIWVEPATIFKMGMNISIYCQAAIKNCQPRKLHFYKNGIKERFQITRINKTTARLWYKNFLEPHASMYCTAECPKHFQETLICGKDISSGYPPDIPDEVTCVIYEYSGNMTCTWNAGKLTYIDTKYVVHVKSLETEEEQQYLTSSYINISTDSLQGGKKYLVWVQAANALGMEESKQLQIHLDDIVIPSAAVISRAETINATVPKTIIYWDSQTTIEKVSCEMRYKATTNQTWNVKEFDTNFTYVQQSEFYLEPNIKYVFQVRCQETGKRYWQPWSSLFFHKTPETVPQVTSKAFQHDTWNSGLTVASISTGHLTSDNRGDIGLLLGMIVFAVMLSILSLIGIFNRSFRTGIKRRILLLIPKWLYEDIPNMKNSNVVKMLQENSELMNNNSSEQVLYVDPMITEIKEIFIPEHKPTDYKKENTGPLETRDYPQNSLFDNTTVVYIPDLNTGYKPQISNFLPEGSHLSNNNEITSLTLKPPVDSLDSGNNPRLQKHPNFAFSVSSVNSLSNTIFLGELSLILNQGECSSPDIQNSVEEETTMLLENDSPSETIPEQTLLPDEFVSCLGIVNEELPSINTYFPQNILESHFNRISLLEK
# assayInfo: DB cells IL23R pSTAT3 cell assay (pStat3 HTRF)
# Format: cell-based
# statedConditions: Table E3; DB cells, IL-23 0.5 nM, 30 minutes at 37° C.; read-out: pStat3 HTRF (IC50)
Bridge positions count the residues as written; N and C are the ends. Square brackets hold non-standard residues; d marks the D form. Peptide text beside a SMILES is read from it. Trp(7-Me) = Cc1cccc2c(C[C@H](N)C(=O)O)c[nH]c12; 2Nal = N[C@@H](Cc1ccc2ccccc2c1)C(=O)O; AEF = NCCOc1ccc(C[C@H](N)C(=O)O)cc1; Cit = NC(=O)NCCC[C@H](N)C(=O)O; Pen = CC(C)(S)[C@H](N)C(=O)O; αMeK = C[C@](N)(CCCCN)C(=O)O

Please review the following examples before continuing.
Ask: Value lookup for IC50; key = CC(=O)NCCCC[C@@H]1NC(=O)[C@H](Cc2c[nH]c3c(C)cccc23)NC(=O)[C@H]([C@@H](C)O)NC(=O)[C@H](CC(N)=O)NC(=O)[C@@H](NC(C)=O)C(C)(C)SSC(C)(C)[C@@H](C(=O)N[C@@H](Cc2ccc(OCCN)cc2)C(=O)N[C@@H](Cc2ccc3ccccc3c2)C(=O)N[C@@](C)(CCCCN)C(=O)N[C@@H](CCCCNC(C)=O)C(=O)N[C@@H](CC(N)=O)C(=O)N[C@H](C(N)=O)C(C)C)NC1=O
Result: 1 to 10 nM

Ask: Value lookup for IC50; key = CC(=O)N[C@@H]1C(=O)N[C@@H](CC(N)=O)C(=O)N[C@@H]([C@@H](C)O)C(=O)N[C@@H](Cc2c[nH]c3c(C)cccc23)C(=O)N[C@@H](CCC(N)=O)C(=O)N[C@H](C(=O)N[C@@H](Cc2ccc(OCCN)cc2)C(=O)N[C@@H](Cc2ccc3ccccc3c2)C(=O)N[C@@](C)(CC(C)C)C(=O)NCC(=O)N2CCC[C@@H]2C(=O)NCCC(N)=O)C(C)(C)SSC1(C)C
Result: > 100 nM

Now for another entry.
Ask: Value lookup for IC50; key = CC(=O)NCCCC[C@H](NC(=O)[C@](C)(CCCCN)NC(=O)[C@H](Cc1ccc2ccccc2c1)NC(=O)[C@H](Cc1ccc(OCCN)cc1)NC(=O)[C@H]1NC(=O)[C@H](CCCNC(N)=O)NC(=O)[C@H](Cc2c[nH]c3c(C)cccc23)NC(=O)[C@H]([C@@H](C)O)NC(=O)[C@H](CC(N)=O)NC(=O)[C@@H](NC(C)=O)C(C)(C)SSC1(C)C)C(=O)N[C@@H](CC(N)=O)C(=O)N[C@@H](C(N)=O)[C@H](C)O [compound 263] (Ac-[Pen]NT[Trp(7-Me)][Cit][Pen][AEF][2Nal][αMeK]K(Ac)N[dT]-NH2; disulfide 1-6)
Result: < 1 nM

---

# assayInfo: in vitro
# statedConditions: both, SD, rat, plasma (EDTA)
valueType: half-life at 20 μM

Please review the following examples before continuing.
Ask: Value lookup for half-life at 20 μM; key = CC(=O)NCCCC[C@H](NC(=O)[C@](C)(CCCCN)NC(=O)[C@H](Cc1ccc2ccccc2c1)NC(=O)[C@H](Cc1ccc(OCCN)cc1)NC(=O)[C@H]1NC(=O)[C@H](CCC(N)=O)NC(=O)[C@H](Cc2c[nH]c3c(C)cccc23)NC(=O)[C@H]([C@@H](C)O)NC(=O)[C@H](CCC(N)=O)NC(=O)[C@@H](NC(C)=O)C(C)(C)SSC1(C)C)C(=O)N[C@@H](CC(N)=O)C(=O)NCCC(N)=O [compound 237]
Result: > 1440 min

Ask: Value lookup for half-life at 20 μM; key = CC(=O)NCCCC[C@H](NC(=O)[C@](C)(CC(C)C)NC(=O)[C@H](Cc1ccc2ccccc2c1)NC(=O)[C@H](Cc1ccc(OCCN)cc1)NC(=O)[C@H]1NC(=O)[C@H](CCC(N)=O)NC(=O)[C@H](Cc2c[nH]c3c(C)cccc23)NC(=O)[C@H]([C@@H](C)O)NC(=O)[C@H](CC(N)=O)NC(=O)[C@@H](NC(C)=O)C(C)(C)SSC1(C)C)C(=O)N[C@@H](CC(N)=O)C(=O)NCCC(N)=O [compound 201]
Result: < 18 min

Continuing:
Ask: Value lookup for half-life at 20 μM; key = CC(=O)NCCCC[C@H](NC(=O)[C@](C)(CC(C)C)NC(=O)[C@H](Cc1ccc2ccccc2c1)NC(=O)[C@H](Cc1ccc(OCCN)cc1)NC(=O)[C@H]1NC(=O)[C@H](CCC(N)=O)NC(=O)[C@H](Cc2c[nH]c3c(C)cccc23)NC(=O)[C@H]([C@@H](C)O)NC(=O)[C@H](CC(N)=O)NC(=O)[C@@H](NC(C)=O)C(C)(C)SSC1(C)C)C(=O)N[C@H](C(=O)NCCC(N)=O)[C@@H](C)O [compound 217]
Result: 120 min

---

# targetOrSystem: UniProtKB Q5VWK5
# assayInfo: DB cells IL23R pSTAT3 cell assay (pStat3 HTRF)
# Type: cell-based
# statedConditions: Table E3; DB cells, IL-23 0.5 nM, 30 minutes at 37° C.; read-out: pStat3 HTRF (IC50)
pIC50: −log10 of the molar value. Numbered stars: 1 amine (or outer) side, 2 acyl side, 3 side chain; on linkers, the order of the positions; unused ones are H or OH. Bridge positions count the residues as written; N and C are the ends. Square brackets hold non-standard residues; d marks the D form. Peptide text beside a SMILES is read from it. X4 = CC(C)c1cccc2c(C[C@H](N[*:1])C(=O)[*:2])c[nH]c12; 2Nal = N[C@@H](Cc1ccc2ccccc2c1)C(=O)O; AEF = NCCOc1ccc(C[C@H](N)C(=O)O)cc1; Pen = CC(C)(S)[C@H](N)C(=O)O; αMeK = C[C@](N)(CCCCN)C(=O)O
valueType: pIC50

Ask: Value lookup for pIC50; key = CC(=O)NCCCC[C@@H]1NC(=O)[C@H](Cc2c[nH]c3c(C(C)C)cccc23)NC(=O)[C@H]([C@@H](C)O)NC(=O)[C@H](CC(N)=O)NC(=O)[C@@H](NC(C)=O)C(C)(C)SSC(C)(C)[C@@H](C(=O)N[C@@H](Cc2ccc(OCCN)cc2)C(=O)N[C@@H](Cc2ccc3ccccc3c2)C(=O)N[C@@](C)(CCCCN)C(=O)N[C@@H](CCCCNC(C)=O)C(=O)N[C@@H](CC(N)=O)C(=O)N[C@H](CC(C)C)C(N)=O)NC1=O [compound 286] (Ac-[Pen]NT[X4]K(Ac)[Pen][AEF][2Nal][αMeK]K(Ac)N[dL]-NH2; disulfide 1-6)
Result: 8.00 to 9.00
